Measured values drawn from PubChem BioAssay (NCI) for this set.

Tested on: HOP-62 NSCLC
Experiment: NCI tumour cell line growth inhibition, 48 h
property_measured: TGI

INSERT INTO measurements (compound, experimental_system, reading) VALUES
  ('O=C(CSc1nc2ccc(I)cc2c(=O)n1Cc1ccccc1)NN1C(=O)CCC1=O', 'HOP-62 NSCLC', '> 100 µM');

Parameter requested: TGI. Apply to each item below.
1. Cc1ccc(S(=O)(=O)N/N=C2\C3CC4CC(C3)C2C4)cc1 (stereo unspecified)
2. NS(=O)(=O)c1ccc(NC(=O)c2cccn3c(=O)c4ccccc4nc23)cc1
3. O=S(=O)(O)C1CCC(O)C2[N-]CCCC21.O=S(=O)(O)C1CCC(O)C2[N-]CCCC21.[Zn+2] (stereo unspecified)
4. C1=C2CNCC3=Cc4ccc5ccccc5c4OC23Oc2c1ccc1ccccc21

Ans.
["> 100 µM", "> 100 µM", "> 100 µM", "16.7 µM"]

Provide TGI for all items below, preserving their order.
1. COc1ccc(/C=C(/C(=O)n2cnnn2)c2cc(OC)c(OC)c(OC)c2)cc1
2. O=C(O)Cn1ccnc1[N+](=O)[O-]
3. O=P(O)(O)CN1CCNCCN(CP(=O)(O)O)CCNCC1
4. O=C1/C(=C\c2cccc(Oc3ccccc3)c2)SC(c2ccccc2)N1c1cccc([N+](=O)[O-])c1 (stereo unspecified)
5. CC(C)(C)c1c(C(C)(C)C)c(=O)c1=O

Ans.
["> 100 µM", "> 100 µM", "> 100 µM", "> 100 µM", "> 100 µM"]

Qu. Would you mind telling me what TGI value was observed for C[C@@H]1C/C=C\C(=O)O[C@H](/C=C/C#C/C=C/C(C)(C)[C@@H](O)c2cccc(O)c2Br)[C@@H](C)/C=C/[C@H](C)C[C@H](OC(N)=O)C1 ?
Ans. 21.4 µM

###

Record form. Attribute: TGI. Fill in for each entry.
Test system: NCI-H23 lung
Assay: NCI tumour cell line growth inhibition, 48 h

Report TGI for every entry below.
1. Cn1cc(CO)c2ccccc21
2. CNc1ccc(Cl)cc1S(=O)(=O)c1ccccc1[N+](=O)[O-]
3. NC(=O)c1c[se]c(C2OC(COP(=O)(O)CP(=O)(O)OCC3OC(n4cnc5c(N)ncnc54)C(O)C3O)C(O)C2O)n1 (configuration not stated)
4. CNc1ccc(S(=O)Nc2ccccc2)cc1 (configuration not stated)
5. CC(=O)Oc1ccc(C2(c3ccc(OC(C)=O)cc3)C(=O)Nc3ccccc32)cc1

Ans.
["> 100 µM", "> 100 µM", "> 100 µM", "> 100 µM", "> 100 µM"]

// batch mode: one TGI value per listed entry
1. Cc1nnc(N=Nc2c(O)[nH]c3ccccc23)n1N
2. O=c1[nH]c2cc(Cl)c(Cl)cc2n2cc3ccccc3c12
3. CC(C)(C)CC(C)(C)c1ccc(OCCOCC[N+](C)(C)Cc2ccccc2)cc1
4. NC(=S)N/N=C\CC(O)(C(F)(F)F)C(F)(F)F
5. C/C(=N/NC(=O)CC(=O)N(C(=O)c1ccccc1Cl)c1ccc(C)cc1)c1cc2ccccc2oc1=O
6. CCOC(=O)c1nc2ccccc2nc1NCc1ccc(Cl)cc1Cl
7. COc1cc2cc(C(=O)N3CC(CCl)c4c3cc([N+](C)(C)Cc3ccc([N+](=O)[O-])n3C)c3ccccc43)[nH]c2c(OC)c1OC (configuration not stated)
8. O=[N+]([O-])c1ccc(NS(=O)(=O)C(F)(F)F)cc1

Ans.
["> 100 µM", "30.9 µM", "6.01 µM", "> 10 µM", "> 100 µM", "> 100 µM", "2.49 µM", "> 100 µM"]

Please state, for each entry, its recorded TGI.
1. CC1(C)C2CCC13C(=O)C1OC3(C2)C2C(=O)c3c(O)cccc3C(=O)C12 (configuration not stated)
2. Fc1cc(-c2nnc3n2N=C(c2ccc(Cl)cc2Cl)CS3)c(Cl)cc1Cl
3. COc1ccc(-c2cc(/C=C/C(=O)c3cc(OC)c(OC)c(OC)c3)[nH]n2)cc1OC
4. CC12CC(c3ccccc3O1)C(C(=O)Nc1cccc(F)c1)C(=O)N2 (configuration not stated)

Ans.
["6.55 µM", "> 100 µM", "4.91 µM", "79.3 µM"]

###

I'd appreciate it if you could supply TGI values for the items below.
Test system: RXF 393 renal
Assay: NCI tumour cell line growth inhibition, 48 h

The following compounds each have a reported value; give each one's TGI.
1. COc1ccc(-c2nc(-c3cnccn3)n(C3OC(CO)C(O)C(O)C3O)n2)cc1 (configuration not stated)
2. CC(=O)CC1(C)OC(N)=C(C#N)C1(C#N)C#N (configuration not stated)
3. CCOC(=O)C1CCCCc2sc(N)c(C#N)c21 (configuration not stated)

Ans.
1. > 100 µM
2. > 100 µM
3. > 100 µM

Provide TGI values for the following items, in order.
1. COc1nc2c(c(O)c(C)c(=O)n2OC2OC(COC(C)=O)C(OC(C)=O)C(OC(C)=O)C2OC(C)=O)c(=O)n1C (configuration not stated)
2. Nc1ccn([C@@H]2C(F)=C(CO)[C@@H](O)[C@H]2O)c(=O)n1
3. CC1=C(C(=O)CC(=O)C(=O)NC2C3CC4CC(C3)CC2C4)Sc2ccccc2N1 (configuration not stated)
4. Oc1[nH]c2ccccc2c1/C=c1/cc2c(c(-c3ccc(C(F)(F)F)cc3)n1)=Nc1ccccc1-2
5. CCc1cccc(CC)c1/C=C/c1cncc(C(=O)NC)c1
6. O=[N+]([O-])c1ccc(NS(=O)(=O)C(F)(F)F)cc1

Ans.
> 100 µM
> 100 µM
> 100 µM
15.3 µM
24.8 µM
> 100 µM

Quick one: give me TGI for each item below, same order please.
1. CC1(C)CC(=O)c2c(oc3cc(O)c(O)cc23)C1
2. Fc1c[c-]c(-c2ccccn2)c(F)c1.[CH3-].[Pt+2].c1ccc(P(C[PH+](c2ccccc2)c2ccccc2)c2ccccc2)cc1
3. Cc1cc2n([O-])cccc-2[n+](=O)c1
4. CC(=O)c1ccc(NC(=O)CSc2nc(C)nc3c2sc(=S)n3-c2ccccc2)cc1
5. O=C(CSc1nc2ccc(I)cc2c(=O)n1Cc1ccccc1)NN1C(=O)CCC1=O

Ans.
["> 100 µM", "1.49 µM", "> 100 µM", "> 3.16 µM", "62.5 µM"]

###

Exercise: for every item that follows, state its recorded TGI.
Tested on: HOP-18 NSCLC
Test: NCI tumour cell line growth inhibition, 48 h

INSERT INTO measurements (molecule, experimental_system, property_measured, reading) VALUES
  ('CCOC(=O)C[C@@]12CCCNC1(C)CCc1ccccc12 (stereo not given in full)', 'HOP-18 NSCLC', 'TGI', '> 100 µM'),
  ('C/C(=N/O)c1ccc2c(c1)C(=NO)c1cc(/C(C)=N/O)ccc1-2', 'HOP-18 NSCLC', 'TGI', '27.4 µM'),
  ('COc1ccc(CC2=NCCc3cc(OC)c(OC)cc32)cc1Br', 'HOP-18 NSCLC', 'TGI', '> 100 µM'),
  ('Cc1cc(=O)[nH]c(NNC(C#N)c2ccc([N+](=O)[O-])cc2)n1 (stereo not given)', 'HOP-18 NSCLC', 'TGI', '> 100 µM');

Next up:
Qu. // returns reported TGI for input C/C(=C\Cc1cc(O)ccc1O)CCc1c(C)cc(O)c(C=O)c1C
Ans. 53.4 µM

###

Tested on: UACC-62 melanoma
Assay: NCI tumour cell line growth inhibition, 48 h; in the data active = GI50 below about 0.43 µM; inactive = the rest
// allowed return values: active, inactive

INSERT INTO results (molecule, classification) VALUES
  ('c1cnc2[nH]cc(-c3csc(-c4cn(CCCN5CCCCC5)c5ccccc45)n3)c2c1', 'inactive');

Qu. # outcome recorded in this test, key = CC(C)(CO)N=Cc1ccccc1[O-].CC(C)(CO)N=Cc1ccccc1[O-].[Co+2]
Ans. inactive

Qu. Could you check what this test reported for CCCn1cnc2c(SCc3ccccc3)nc(N)nc21 ?
Ans. inactive

Qu. Check the results log: what was the call for c1ccc(CC(NCCNC(Cc2ccccc2)c2ccccc2)c2ccccc2)cc1 (stereo not drawn) ?
Ans. inactive

Qu. For CCC(=O)c1cc([N+](=O)[O-])c(Br)s1 , what call appears in the results of this test?
Ans. inactive

Qu. Which result was noted for this molecule in the test: C[C@@H]1C/C=C\C(=O)O[C@H](/C=C/C#C/C=C/C(C)(C)[C@@H](O)c2cccc(O)c2Br)[C@@H](C)/C=C/[C@H](C)C[C@H](OC(N)=O)C1
Ans. active

Qu. Give the logged outcome of this assay for the following molecule: COc1ccc(C2ONC3=NCCN32)cc1 (stereo not drawn)
Ans. inactive

Qu. I'd appreciate the recorded outcome for O=C(Nc1cc(S(=O)(=O)c2ccc(Cl)cc2)ccc1Cl)c1cc(I)cc(I)c1O from this test.
Ans. inactive
